assay: Metabolic stability human plasma assessed as compound degradation at 60 MBq after 120 mins by UPLC analysis; type: ADME, cell-free; conditions: read-out: Drug degradation
Readout label: metabolised at 2 h, 60 MBq (%)

smiles_data=[18F]C1CCN(Cc2ccc(OCCCN3CCCCC3)cc2)CC1 value_observed=3
